protocol-notes: Apparent permeability of the compound in pH 7.4 phosphate buffer solution at 0.5 mM incubated for 24 hrs under gentle shaking condition by HPLC-UV detector based PAMPA assay
Type: ADME
readout-label: Papp at 24 h, 500 µM (×10⁻⁶ cm/s)
State just the number; it will be interpreted in ×10⁻⁶ cm/s.

Qu. Field request: Papp at 24 h, 500 µM | item: `Oc1ccc(O)c(-c2nc3ccccc3o2)c1`
Ans. 0.912

---

tested-target: UniProt:O15054
protocol-notes: Inhibition of recombinant human JMJD3 expressed in baculovirus infected Sf9 cells at 25 uM using biotinylated histone H3 peptide as substrate incubated for 15 mins followed by substrate addition and measured after 60 mins by AlphaScreen assay relative to control
The source made the active and inactive calls. The rule behind the calls is not given here.
readout-label: inhibition

These recorded examples may help you get a feel for the data.
smiles-record	readout-label	test-value
Oc1ccccc1-c1nc2ccccc2o1	inhibition	40%
Oc1c(F)cc(F)cc1-c1nc2ccccc2o1	inhibition	20%
Oc1ccc(O)c(-c2nc3ccccc3o2)c1	inhibition	90%
Oc1ccccc1-c1nc2ccccc2s1	inhibition	inactive
COc1cc2c(cc1-c1nc3ccccc3o1)OCO2	inhibition	inactive

Consider the record given below.
Qu. Notebook: pull reported inhibition for UniProt:O15054, entry `O=C(O)c1ccc(O)c(-c2nc3ccccc3o2)c1`
Ans. 27%

---

tested-target: Lysine-specific demethylase 6B (Homo sapiens, UniProt O15054)
Sequence (O15054 whole entry): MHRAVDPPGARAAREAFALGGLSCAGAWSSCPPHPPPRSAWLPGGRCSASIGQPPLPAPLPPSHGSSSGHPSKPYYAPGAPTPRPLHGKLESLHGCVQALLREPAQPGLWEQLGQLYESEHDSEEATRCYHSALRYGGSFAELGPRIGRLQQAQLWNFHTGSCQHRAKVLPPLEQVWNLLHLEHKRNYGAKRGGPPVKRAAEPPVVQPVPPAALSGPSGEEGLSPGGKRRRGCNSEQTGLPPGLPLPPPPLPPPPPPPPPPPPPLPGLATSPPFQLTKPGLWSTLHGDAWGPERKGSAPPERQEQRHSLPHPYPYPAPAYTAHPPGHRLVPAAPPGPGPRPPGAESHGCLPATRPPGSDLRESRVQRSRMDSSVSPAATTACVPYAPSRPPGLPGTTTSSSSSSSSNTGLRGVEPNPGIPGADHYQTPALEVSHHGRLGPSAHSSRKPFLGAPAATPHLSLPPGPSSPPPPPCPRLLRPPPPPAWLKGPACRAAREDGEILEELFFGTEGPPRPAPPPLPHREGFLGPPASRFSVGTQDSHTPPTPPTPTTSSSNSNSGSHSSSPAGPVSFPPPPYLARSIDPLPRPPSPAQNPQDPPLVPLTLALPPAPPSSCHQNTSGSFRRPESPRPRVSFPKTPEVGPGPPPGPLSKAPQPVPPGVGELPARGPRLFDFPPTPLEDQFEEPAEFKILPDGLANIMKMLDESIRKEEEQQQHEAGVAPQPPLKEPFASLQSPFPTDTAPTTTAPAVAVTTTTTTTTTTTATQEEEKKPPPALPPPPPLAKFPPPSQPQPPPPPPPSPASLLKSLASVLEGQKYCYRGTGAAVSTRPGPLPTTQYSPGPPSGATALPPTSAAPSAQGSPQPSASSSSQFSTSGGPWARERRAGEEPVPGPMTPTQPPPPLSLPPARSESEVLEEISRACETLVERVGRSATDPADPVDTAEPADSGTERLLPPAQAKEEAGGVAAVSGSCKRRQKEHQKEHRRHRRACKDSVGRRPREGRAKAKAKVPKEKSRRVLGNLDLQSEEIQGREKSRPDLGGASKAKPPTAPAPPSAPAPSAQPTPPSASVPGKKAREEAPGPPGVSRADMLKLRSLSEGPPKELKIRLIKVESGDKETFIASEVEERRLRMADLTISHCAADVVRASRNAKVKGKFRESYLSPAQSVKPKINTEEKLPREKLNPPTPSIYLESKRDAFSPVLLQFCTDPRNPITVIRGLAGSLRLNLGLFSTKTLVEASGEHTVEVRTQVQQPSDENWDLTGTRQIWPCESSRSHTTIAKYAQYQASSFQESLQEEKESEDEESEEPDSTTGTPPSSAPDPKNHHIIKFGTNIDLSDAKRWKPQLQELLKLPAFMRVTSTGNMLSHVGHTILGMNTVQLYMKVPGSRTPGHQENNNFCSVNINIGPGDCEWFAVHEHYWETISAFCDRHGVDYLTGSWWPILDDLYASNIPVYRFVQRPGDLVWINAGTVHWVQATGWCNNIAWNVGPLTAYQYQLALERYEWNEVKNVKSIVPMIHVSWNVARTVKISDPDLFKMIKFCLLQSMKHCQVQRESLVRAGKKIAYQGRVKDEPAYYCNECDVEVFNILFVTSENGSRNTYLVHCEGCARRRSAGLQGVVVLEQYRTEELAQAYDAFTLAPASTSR
protocol-notes: Inhibition of recombinant human JMJD3 expressed in baculovirus infected Sf9 cells using biotinylated histone H3 peptide as substrate incubated for 15 mins followed by substrate addition and measured after 60 mins by AlphaScreen assay
readout-label: pIC50
Note on pIC50: it is the negative log10 of concentration, concentration in mol/L.

Qu. Can you look up the measured pIC50 of `Oc1ccc(O)c(-c2nc3ccccc3o2)c1` for me?
Ans. 5.92
